Exercise: for every item that follows, state its recorded Log10 Infection Rel EF-C.
Tested on: HIV-1 infection of TZM-bl cells
Experiment: HIV-1 infectivity enhancement assay, β-galactosidase luminescence
Assay type: cell-based
Settings: HIV-1 infection of TZM-bl cells, infection rate relative to EF-C, log10; source data of Figure 2C
Numbers only.

Worked cases, Log10 Infection Rel EF-C given:
>>> df
     substance  obs_value
0     KIEIQINM     -1.458
1   PPFHPPPFHP     -1.751
2     KAKAKAQA      -2.06
3  MKIKIQINMWQ     -0.378
4    CEIEIQINM     -1.186

Here are 7 substances. What values of Log10 Infection Rel EF-C were reported for them?
1. KFKFKFQF
2. CKYKYQY
3. CKFKQFFNMWQ
4. KIKIQINM
5. KYKGAIIGNIK
6. CRFRFQF
7. KIKIQIN

Reply:
[-0.09726, -1.3903, -0.2148, -0.4404, -2.508, -0.4635, -0.5766]

Field: Log10 Infection Rel EF-C. Fill in for each record below.
1. QCKFKFQFNMWQ
2. KIKQIINMWQ
3. KIKIKIKI
4. KAKAQA

Reply:
-0.2086
-0.4604
-1.487
-1.743

Below is a list of substances. For each, state its recorded Log10 Infection Rel EF-C.
1. RGDCKIKIQINM
2. CKAKAQANMWQ
3. HGDKCHGDKC

Reply:
1: -0.6272; 2: -1.359; 3: -1.991

* * *

For each record, write down the corresponding Fibril.
Assay type: physicochemical
Design: key: 1 = fibrils present; 0 non-fibrillar structures
Conditions: TEM; 1 = fibrils present, 0 = non-fibrillar structures
One number for each entry.

Below, each entry is followed by its recorded Fibril result.
>>> print(df.to_string())
      substance  value_type  obs_value
0       CKIKQII      Fibril          1
1       KLKLQLL      Fibril          1
2  QCKFKQFFNMWQ      Fibril          1
3    QCKAKAQANM      Fibril          0
4       CKFKFQF      Fibril          1

Record summary for ILKNLSRSRKIKIQIC : reported Fibril = 1

* * *

Test: Zeta-potential measurement
Assay type: physicochemical
Conditions: mean, Std Zeta in next column
value-type: Zeta Pot. / mV (mV)
One number for each entry, in mV.

Solved cases (4 shown):
                    substance      value_type  obs_value
0            KFKFQFNMWQ [JG4]  Zeta Pot. / mV       25.4
1            KIKIQINMWQ [JG1]  Zeta Pot. / mV      14.87
2            KAKAQANMWQ [JG3]  Zeta Pot. / mV     -19.63
3  ILKNLSRSRKIKIQINMWQ [TM92]  Zeta Pot. / mV       19.2

// each substance listed below needs its Zeta Pot. / mV
1. CKFKFQF [BL4]
2. CKFKFQFW [TM72]
3. QCKIKIQI [CK3]
4. QCKIKQIINM [CK5]
5. QCKIKQIINMWQ [reference compound]

Reply:
[19.73, 15.2, 9.52, 10.4, 6.643]
